assay system: protein kinase D3 (PKD3) (Homo sapiens)
Construct: This assay is performed with full length wild-type enzyme that is purchased from Invitrogen; purchased Invitrogen
Sequence (O94806 whole entry): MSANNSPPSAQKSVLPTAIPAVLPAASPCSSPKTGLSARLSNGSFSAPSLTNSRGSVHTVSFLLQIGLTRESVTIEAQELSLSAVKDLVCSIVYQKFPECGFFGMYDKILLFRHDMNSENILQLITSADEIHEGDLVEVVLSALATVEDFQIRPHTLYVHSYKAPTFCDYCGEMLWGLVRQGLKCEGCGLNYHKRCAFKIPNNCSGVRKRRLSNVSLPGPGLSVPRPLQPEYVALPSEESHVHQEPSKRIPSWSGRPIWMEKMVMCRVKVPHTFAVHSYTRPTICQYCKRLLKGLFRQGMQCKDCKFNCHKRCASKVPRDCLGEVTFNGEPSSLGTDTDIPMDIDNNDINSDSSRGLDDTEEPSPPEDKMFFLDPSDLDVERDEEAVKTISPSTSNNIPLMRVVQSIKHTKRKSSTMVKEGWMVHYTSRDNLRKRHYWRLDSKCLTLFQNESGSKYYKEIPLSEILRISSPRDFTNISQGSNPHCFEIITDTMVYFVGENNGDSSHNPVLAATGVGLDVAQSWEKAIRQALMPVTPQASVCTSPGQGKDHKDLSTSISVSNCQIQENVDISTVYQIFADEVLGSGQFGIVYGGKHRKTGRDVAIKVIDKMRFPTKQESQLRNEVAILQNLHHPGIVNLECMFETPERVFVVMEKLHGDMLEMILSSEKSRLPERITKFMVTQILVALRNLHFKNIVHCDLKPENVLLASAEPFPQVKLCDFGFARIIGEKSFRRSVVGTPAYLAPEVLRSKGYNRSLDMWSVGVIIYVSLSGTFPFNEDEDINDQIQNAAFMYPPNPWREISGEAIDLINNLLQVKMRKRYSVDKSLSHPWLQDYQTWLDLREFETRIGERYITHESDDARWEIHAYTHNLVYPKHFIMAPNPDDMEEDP
experiment notes: PKD3 TR-FRET (LANCE) kinase assay
Format: biochemical
measurement parameters: full length wild-type enzyme, 20 μM ATP, syntide-2 substrate; read-out: Inhibitory Activity PKD3
From the text: The assay to measure protein kinase D3 (PKD3) activity is a time-resolved fluorescence resonance transfer (TR-FRET) assay using PerkinElmer's LANCE™ technology. In this case, a biotinylated syntide-2 peptide is used as the substrate in this reaction. Phosphorylation of the syntide-2 substrate is detected by a specific antibody that recognizes the phosphorylated peptide. A second fluorophore, APC, is conjugated to streptavidin that binds the biotinylated syntide-2 peptide. […]
pIC50: −log10 of the molar value.
readout label: pIC50

[a] O=[N+]([O-])c1cc(-c2ccnc(NC3CCCCC3)c2)nc(N2CCNCC2)c1
[b] c1cc(-c2cc(-c3nnco3)cc(N3CCNCC3)n2)cc(NC2CCCCC2)n1
Problem: Could you kindly indicate whether a or b has the higher pIC50 value? Return value: the label identifying the chosen record.
Result: a
(a: 8.30, b: 7.85)
